Tested on: Mycobacterium tuberculosis
PROTOCOL_DETAILS: Antitubercular activity against Mycobacterium tuberculosis H37Rv in GAS medium after 4 days by microplate alamar blue assay
Type: functional
CONDITION_INFO: 96 h
Entries and their MIC values follow.
PARAMETER: MIC

COC(=O)/C(=C/c1ccc(F)cc1)CSC#N :: 0.5 µM
COC(=O)/C(=C/c1ccc(Cl)cc1)CSC(=N)Nc1ccccc1 :: 8 µM
COC(=O)/C(=C/c1cccc([N+](=O)[O-])c1)CSC(=N)Nc1ccccc1 :: 16 µM
COC(=O)/C(=C/C=C/c1ccccc1)CN=[N+]=[N-] :: 64 µM
COC(=O)/C(=C/c1ccccc1Cl)CSC#N :: > 128 µM
COC(=O)/C(=C/c1ccc2ccccc2c1)CSC#N :: 0.25 µM
COC(=O)/C(=C/c1ccc2c(c1)OCO2)CN=[N+]=[N-] :: 64 µM
COC(=O)/C(=C/c1ccc(C)cc1)CSC(=N)Nc1ccccc1 :: 16 µM
COC(=O)/C(=C/c1ccccc1Br)CSC#N :: 0.25 µM
COC(=O)/C(=C/c1ccccc1)CS/C(=N\C(C)=O)NC(C)=O :: 32 µM
COC(=O)/C(=C/c1ccccc1)CSC(=N)N :: 64 µM
COC(=O)/C(=C/c1ccc([N+](=O)[O-])cc1)CN=[N+]=[N-] :: 4 µM
COC(=O)/C(=C/c1ccccc1[N+](=O)[O-])CSC(=N)Nc1ccccc1 :: 16 µM
COC(=O)/C(=C/c1ccccc1Cl)CN=[N+]=[N-] :: > 128 µM
COC(=O)/C(=C/c1ccc(OC)cc1)CSC(=N)Nc1ccccc1 :: 16 µM
COC(=O)/C(=C/c1ccccc1)CSC(=N)Nc1ccccc1 :: 16 µM

====

Tested on: Mycobacterium tuberculosis
PROTOCOL_DETAILS: Antitubercular activity against Mycobacterium tuberculosis H37Rv in GAS medium after 4 days by microplate alamar blue assay
Type: functional
CONDITION_INFO: 96 h
PARAMETER: MIC (µM)

COC(=O)/C(=C/c1ccc(Cl)cc1)CSC#N :: 0.25
COC(=O)/C(=C/c1ccccc1)CSC#N :: 1
COC(=O)/C(=C/c1ccc(OC)cc1)CSC#N :: 16
COC(=O)/C(=C/c1ccc(OC)cc1)CSC(=N)N :: 32
COC(=O)/C(=C/c1ccccc1Cl)CS/C(=N\C(C)=O)NC(C)=O :: 32
COC(=O)/C(=C/c1ccc(F)cc1)CSC(=N)Nc1ccccc1 :: 8
COC(=O)/C(=C/c1ccc([N+](=O)[O-])cc1)CSC(=N)N :: 8
COC(=O)/C(=C/c1ccccc1[N+](=O)[O-])CN=[N+]=[N-] :: 64
COC(=O)/C(=C/c1ccc2c(c1)OCO2)CSC(=N)Nc1ccccc1 :: 16
COC(=O)/C(=C/c1ccc([N+](=O)[O-])cc1)CSC(=N)Nc1ccccc1 :: 4
COC(=O)/C(=C/c1ccc(C)cc1)CSC#N :: 0.5
COC(=O)/C(=C/c1ccccc1[N+](=O)[O-])CSC#N :: 8
COC(=O)/C(=C/c1ccc(OC)c(OC)c1)CSC#N :: 16
COC(=O)/C(=C/c1ccc(Br)cc1)CSC#N :: 0.25
